- Measured Target: UniProtKB P43088
- Assay Explanation: In vitro test of inhibition of human FP receptor activity (PGF2α-induced calcium flux in FP-expressing CHEM1 cells)
- Condition Summary: PGF2α-induced (3 nM) calcium flux, some as mean values from multiple independent determinations
Can you tell me pIC50 for the items I'm about to list?
Scale: pIC50 equals -log10([C]), with [C] in mol/L.

Suppose we examine the compound CCc1c(-c2ccccc2)nc2ccc(Br)cc2c1C(=O)NC12CCC(C(=O)O)(CC1)CC2 [Example 28] ; what pIC50 value has been reported?
6.66

Suppose we examine the compound Cc1c(-c2ccccc2)nc2ccc(C3CC3)cc2c1C(=O)NC12CCC(C(=O)O)(CC1)CC2 [Example 15] ; what pIC50 value has been reported?
6.49

Suppose we examine the compound C=Cc1c(-c2ccccc2)nc2ccc(Br)cc2c1C(=O)NC12CCC(C(=O)O)(CC1)CC2 [Example 67] ; what pIC50 value has been reported?
6.36

Suppose we examine the compound Cc1cc2nc(-c3ccccc3)c(C)c(C(=O)NC34CCC(C(=O)O)(CC3)CC4)c2cc1C [Example 23] ; what pIC50 value has been reported?
6.51

Suppose we examine the compound O=C(NC12CCCC(C(=O)O)(CC1)CC2)c1c(Cl)c(-c2ccccc2)nc2ccc(Br)cc12 [Example 40] ; what pIC50 value has been reported?
6.71

Suppose we examine the compound Cc1c(-c2ccccc2)nc2ccc(C(F)(F)F)cc2c1C(=O)NC12CCC(C(=O)O)(CC1)CC2 [Example 34] ; what pIC50 value has been reported?
6.30

Suppose we examine the compound Cc1ccccc1-c1nc2ccc(Br)cc2c(C(=O)NC23CCC(C(=O)O)(CC2)CC3)c1C [Example 24] ; what pIC50 value has been reported?
6.89

Suppose we examine the compound Cc1c(-c2ccccc2)nc2ccc(Br)cc2c1C(=O)NC12CC(C(=O)O)(C1)C2 [Example 37] ; what pIC50 value has been reported?
6.14

Suppose we examine the compound Cc1c(-c2ccccc2)nc2c(Cl)cc(Cl)cc2c1C(=O)NC12CCC(C(=O)O)(CC1)CC2 [Example 22] ; what pIC50 value has been reported?
6.17

Suppose we examine the compound N#Cc1c(-c2ccccc2)nc2ccc(Br)cc2c1C(=O)NC12CCC(C(=O)O)(CC1)CC2 [Example 66] ; what pIC50 value has been reported?
6.12

Suppose we examine the compound COc1cccc(-c2nc3ccc(Br)cc3c(C(=O)NC34CCC(C(=O)O)(CC3)CC4)c2C)c1 [Example 26] ; what pIC50 value has been reported?
6.94

----------
Can you tell me log10 of IC50 for the items I'm about to list?
- Measured Target: human FP receptor (Homo sapiens (Human))
- Sequence (P43088 whole entry): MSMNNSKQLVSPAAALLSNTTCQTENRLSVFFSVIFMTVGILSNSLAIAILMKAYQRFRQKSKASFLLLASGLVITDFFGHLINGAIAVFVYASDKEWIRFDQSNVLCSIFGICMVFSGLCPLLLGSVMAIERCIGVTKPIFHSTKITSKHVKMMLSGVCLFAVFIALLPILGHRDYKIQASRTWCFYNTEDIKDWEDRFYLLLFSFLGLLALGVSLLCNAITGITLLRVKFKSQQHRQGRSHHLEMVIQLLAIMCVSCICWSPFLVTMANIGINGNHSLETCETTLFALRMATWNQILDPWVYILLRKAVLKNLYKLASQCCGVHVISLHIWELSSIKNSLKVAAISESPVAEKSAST
- Assay Explanation: In vitro test of inhibition of human FP receptor activity (PGF2α-induced calcium flux in FP-expressing CHEM1 cells)
- Condition Summary: PGF2α-induced (3 nM) calcium flux, some as mean values from multiple independent determinations
All values: log10 IC50 [nM].

Missing value: log10 of IC50, human FP receptor (Homo sapiens (Human)), entry Cc1c(-c2ccccc2)nc2ccc(Br)cc2c1C(=O)NC12CCC(C(=O)O)(CC1=O)CC2=O . Fill in?
1.91

Missing value: log10 of IC50, human FP receptor (Homo sapiens (Human)), entry COc1c(-c2ccccc2)nc2ccc(Br)cc2c1C(=O)NC12CCC(C(=O)O)(CC1)CC2 . Fill in?
2.18

Missing value: log10 of IC50, human FP receptor (Homo sapiens (Human)), entry O=C(NC12CCC(C(=O)O)(CC1)CC2)c1c(F)c(-c2ccccc2)nc2ccc(Br)cc12 . Fill in?
2.14

Missing value: log10 of IC50, human FP receptor (Homo sapiens (Human)), entry Cc1c(-c2cccc(Cl)c2)nc2ccc(Br)cc2c1C(=O)NC12CCC(C(=O)O)(CC1)CC2 . Fill in?
2.11

Missing value: log10 of IC50, human FP receptor (Homo sapiens (Human)), entry Cc1c(-c2ccccc2)nc2ccc(Br)cc2c1C(=O)NC12CCC(C(=O)O)(CC1)C(F)(F)C2 . Fill in?
2.82

Missing value: log10 of IC50, human FP receptor (Homo sapiens (Human)), entry O=C(NC12CCCC(C(=O)O)(CC1)CC2)c1c(Cl)c(-c2ccccc2)nc2ccc(I)cc12 . Fill in?
1.68

Missing value: log10 of IC50, human FP receptor (Homo sapiens (Human)), entry O=C(NC12CCC(C(=O)O)(CC1)CC2)c1c(C2CC2)c(-c2ccccc2)nc2ccc(Br)cc12 . Fill in?
1.71
